Tested on: WT MEF EVs
Test details: Quantitative LC-MS/MS proteomics of EVs from ISRIB-treated WT MEF cultures
Type: cell-based, mouse
Parameters: key: YES = protein abundance effect similar to DYT/WT
Setup conditions: EV protein abundance, WT + ISRIB vs WT, direction compared with DYT/WT
Assay readout: ISRIB and DYT Parallel Direction

molecule="Extl2 (protein, UniProt Q9ES89 1-330, looked up) Exostosin-like 2: MMRGCHICKLPGRVMGIRVLRFSLVVILVLLLVAGALTNLLPNIKEDKMLTLRREIKSPSKSALDSFTLIMQTYNRTDLLLRLLNHYQAVPSLHKVIVVWNNVGEKGPEELWNSLGPHPIPVIFKPQTANKMRNRLQVFPEVETNAVLMVDDDTLISAQDLVFAFSIWQQFPDQIIGFVPRKHVSTSSGIYSYGGFELQTPGPGNGDQYSMVLIGASFFNSKYLELFQKQPAAVHALIDETQNCDDIAMNFLVTRHTGKPSGIFVKPINMVNLEKETNGYSGMWHRAEHFLQRSYCINKLVNIYDGMPLKYSNIMISQFGFPYANHKSKM" measured_value=YES
molecule="Capg (protein, UniProt P24452 1-352, looked up) Macrophage-capping protein: MYTPIPQSGSPFPASVQDPGLHIWRVEKLKPVPIARESHGIFFSGDSYLVLHNGPEEASHLHLWIGQQSSRDEQGACAVLAVHLNTLLGERPVQHREVQGNESDLFMSYFPRGLKYYREGGVESAFHKTTSGARGAAIRKLYQVKGKKNIRATERPLSWDSFNTGDCFILDLGQNIFAWCGGKSNILERNKARDLALAIRDSERQGKAQVEIITDGEEPAEMIQVLGPKPALKEGNPEEDITADQTRPNAQAAALYKVSDATGQMNLTKVADSSPFASELLIPDDCFVLDNGLCAQIYIWKGRKANEKERQAALQVADGFISRMRYSPNTQVEILPQGRESPIFKQFFKNWK" measured_value=YES

// data source = patent US20260266848A1
